- method_summary: Octanol-water partition coefficient, log P after 5 hrs by shake flask method
- Assay type: physicochemical
Quick reference: logP at 5 h of the listed items.

CN(C)c1ccc(-c2cc(-c3ccc(N)cc3)[s+]c(-c3ccc(N(C)C)cc3)c2)cc1.F[P-](F)(F)(F)(F)F :: 2.2
c1ccc(-c2cc(-c3ccc(N4CCOCC4)cc3)[s+]c(-c3ccc(N4CCOCC4)cc3)c2)cc1 :: 1.3

Data request: Query (compound): "CN(C)c1ccc(-c2cc(-c3ccc(N)cc3)[se+]c(-c3ccc(N)cc3)c2)cc1.F[P-](F)(F)(F)(F)F" ; field requested: logP at 5 h
Data returned: 2.2

Data request: Fill in the blank: the reported logP at 5 h of "CCCc1cc(-c2ccc(N(C)C)cc2)cc(-c2ccc(N(C)C)cc2)[s+]1.[I-]" is ____.
Data returned: 1.2

Data request: Find the recorded logP at 5 h belonging to "CN(C)c1ccc(-c2cc(-c3ccccc3)[s+]c(-c3ccc(N)cc3)c2)cc1.F[P-](F)(F)(F)(F)F" and report it.
Data returned: 0

Data request: What does the data say about its logP at 5 h? Entry: "CN(C)c1ccc(-c2cc(-c3cccs3)cc(-c3ccc(N(C)C)cc3)[te+]2)cc1"
Data returned: 2.2
